Listing: hEphB2-SEAP-: absorbance at 450 nm, percentage with respect to hEphA4-SEAP-His as 100% of selected molecules
Biological target: T1, human EphB2 (Homo sapiens, UniProt P29323)
T1 construct: a protein of the extracellular region of each human Eph receptor fused with the SEAP protein and the His tag; made in house; host or cells: Expi293F cells
T1 sequence (P29323 19-543 limits assumed): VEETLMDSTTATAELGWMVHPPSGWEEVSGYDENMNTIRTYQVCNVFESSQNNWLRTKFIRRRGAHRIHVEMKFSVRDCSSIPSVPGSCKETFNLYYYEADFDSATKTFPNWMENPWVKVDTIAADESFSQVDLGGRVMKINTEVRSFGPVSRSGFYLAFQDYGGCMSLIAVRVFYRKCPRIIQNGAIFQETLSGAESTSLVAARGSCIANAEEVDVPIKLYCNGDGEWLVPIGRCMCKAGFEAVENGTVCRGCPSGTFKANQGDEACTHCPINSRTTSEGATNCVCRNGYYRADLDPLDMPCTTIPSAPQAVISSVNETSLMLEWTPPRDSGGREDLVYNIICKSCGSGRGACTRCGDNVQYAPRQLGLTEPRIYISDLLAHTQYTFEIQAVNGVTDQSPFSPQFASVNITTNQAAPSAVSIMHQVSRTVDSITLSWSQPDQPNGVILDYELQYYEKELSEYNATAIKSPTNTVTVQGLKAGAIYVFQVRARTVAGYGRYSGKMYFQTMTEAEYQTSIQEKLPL
Test: Selectivity ELISA of humanized antibodies for human Eph receptor
Type: binding
Settings: coated protein 1 nM
Provide the reading as a plain figure in %.

78 (antibody, V domains shown, synthetic humanized antibody heavy chain variable region sequence; synthetic humanized antibody light chain variable region sequence) VH: QVQLVQSGSELKKPGASVKVSCKASGYTFTDYSMHWVRQAPGQGLKWMGWINTETGEPTYADDFKGRFVFSLDTSVSTAYLQISSLKAEDTAVYYCARIPLYYYGSRYWYFDVWGQGTTVTVSS VL: DIQMTQSPSSLSASVGDRVTITCRASENIYRNLAWYQQKPGKAPKLLVYAATNLADGVPSRFSGSGSGTDYTLTISSLQPEDFATYYCQHFWGTPWTFGQGTKVEIK; 5.1

Recorded hEphB2-SEAP-: absorbance at 450 nm, percentage with respect to hEphA4-SEAP-His as 100% of 142 (antibody, V domains shown, synthetic humanized antibody heavy chain variable region sequence; synthetic humanized antibody light chain variable region sequence) VH: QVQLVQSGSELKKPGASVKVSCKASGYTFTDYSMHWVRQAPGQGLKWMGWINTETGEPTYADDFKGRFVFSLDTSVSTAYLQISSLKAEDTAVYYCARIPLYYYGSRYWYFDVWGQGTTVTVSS VL: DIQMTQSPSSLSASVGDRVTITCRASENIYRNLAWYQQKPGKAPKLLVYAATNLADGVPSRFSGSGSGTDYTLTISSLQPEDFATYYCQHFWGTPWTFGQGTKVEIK , please.
5.6
